Target: human Chemokine like receptor 1 (Homo sapiens, UniProt Q99788)
Construct: host or cells: U2OS (Tango CMKLR1-bla U2OS)
Sequence (Q99788 whole entry): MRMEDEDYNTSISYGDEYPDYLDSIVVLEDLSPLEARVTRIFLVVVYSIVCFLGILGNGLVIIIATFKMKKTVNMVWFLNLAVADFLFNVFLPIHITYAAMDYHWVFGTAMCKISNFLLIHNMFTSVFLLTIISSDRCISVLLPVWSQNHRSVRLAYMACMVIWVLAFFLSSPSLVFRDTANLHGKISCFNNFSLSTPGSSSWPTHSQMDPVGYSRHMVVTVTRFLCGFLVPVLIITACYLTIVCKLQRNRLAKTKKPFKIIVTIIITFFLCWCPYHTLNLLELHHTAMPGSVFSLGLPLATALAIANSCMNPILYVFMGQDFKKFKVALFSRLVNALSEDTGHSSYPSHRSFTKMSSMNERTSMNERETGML
Assay: Activation of Tango CMKLR1-bla U2OS cells (beta-lactamase FRET reporter)
Format: cell-based
Conditions: determination by the method of Effect Embodiment 1; read-out: EC50
Numbered stars: 1 amine (or outer) side, 2 acyl side, 3 side chain; on linkers, the order of the positions; unused ones are H or OH. Square brackets hold non-standard residues; d marks the D form. Peptide text beside a SMILES is read from it. * marks the point of attachment. Bpa = N[C@@H](Cc1ccc(C(=O)c2ccccc2)cc1)C(=O)O; Phe(4-Me) = Cc1ccc(C[C@H](N)C(=O)O)cc1; X5 = O=C([C@H]1c2ccccc2CCN1[*:1])[*:2]; dNMeY = CN[C@H](Cc1ccc(O)cc1)C(=O)O; Hydrocinnamoyl = O=C(CCc1ccccc1)*; NEtLeu = CCN[C@@H](CC(C)C)C(=O)O; NMeF = CN[C@@H](Cc1ccccc1)C(=O)O; Tic = O=C(O)[C@@H]1Cc2ccccc2CN1; NMeL = CN[C@@H](CC(C)C)C(=O)O; NMehSer = CN[C@@H](CCO)C(=O)O; X12 = O=C(Cc1cc(O)cc(O)c1)*; Thz = O=C(O)[C@@H]1CSCN1
Value Kind: log10 of EC50 (log10 of the value in nM)
Please be aware that the numbers have been log10-transformed from EC50 in nM.

Previously resolved entries follow.
* C[C@@H](NC(=O)[C@H](Cc1ccccc1)NC(=O)[C@H](CCC(N)=O)NC(=O)[C@@H](CO)NC(=O)[C@@H]1CCCN1C(=O)[C@H](Cc1ccccc1)N(C)C(=O)[C@H](Cc1ccccc1)NC(=O)[C@H](N)Cc1ccc(O)cc1)C(=O)N1Cc2ccccc2C[C@H]1C(=O)N[C@@H](CO)C(=O)O [YW-100] (H-[dY]F[NMeF]P[dS]QF[dA][Tic]S-OH) | 1.62
* CC(C)C[C@H](NC(=O)[C@H](Cc1ccccc1)NC(=O)[C@@H](Cc1ccc(O)cc1)NC(=O)Cc1cc(O)cc(O)c1)C(=O)N1CCC[C@H]1C(=O)N[C@H](CO)C(=O)N[C@@H](CCC(N)=O)C(=O)N[C@@H](Cc1ccccc1)C(=O)N[C@H](C)C(=O)N1Cc2ccccc2C[C@H]1C(=O)N[C@@H](CO)C(=O)O [YW-131] (X12-[dY]FLP[dS]QF[dA][Tic]S-OH) | 0.46
* Cc1ccc(C[C@H](NC(=O)[C@@H](C)NC(=O)[C@H](Cc2ccccc2)NC(=O)[C@H](CCC(N)=O)NC(=O)[C@@H](CO)NC(=O)[C@@H]2CCCN2C(=O)[C@H](CC(C)C)N(C)C(=O)[C@H](Cc2ccccc2)NC(=O)[C@H](N)Cc2ccc(O)cc2)C(=O)N[C@@H](CO)C(=O)O)cc1 [YW-205] (H-[dY]F[NMeL]P[dS]QF[dA][Phe(4-Me)]S-OH) | 0.79
* CC(C)C[C@H](NC(=O)[C@H](Cc1ccccc1)NC(=O)[C@H](N)Cc1ccc(O)cc1)C(=O)N1CSC[C@H]1C(=O)N[C@H](CO)C(=O)N[C@@H](CCC(N)=O)C(=O)N[C@@H](Cc1ccccc1)C(=O)N[C@H](C)C(=O)N1Cc2ccccc2C[C@H]1C(=O)N[C@@H](CO)C(=O)O [YW-114] (H-[dY]FL[Thz][dS]QF[dA][Tic]S-OH) | 0.70
* CCN(C(=O)[C@H](Cc1ccccc1)NC(=O)[C@@H](Cc1ccc(O)cc1)NC(=O)CCc1ccccc1)[C@@H](CC(C)C)C(=O)N1CCC[C@H]1C(=O)N[C@H](CO)C(=O)N[C@@H](CCC(N)=O)C(=O)N[C@@H](Cc1ccccc1)C(=O)N[C@H](C)C(=O)N1Cc2ccccc2C[C@H]1C(=O)N[C@@H](CO)C(=O)O [YW-185] (Hydrocinnamoyl-[dY]F[NEtLeu]P[dS]QF[dA][Tic]S-OH) | 0.77

Entry CN[C@H](Cc1ccc(O)cc1)C(=O)N[C@@H](Cc1ccccc1)C(=O)N[C@@H](CC(C)C)C(=O)N1CCC[C@H]1C(=O)N[C@H](CO)C(=O)N[C@@H](CCC(N)=O)C(=O)N[C@@H](Cc1ccccc1)C(=O)N[C@H](C)C(=O)N1CCc2ccccc2[C@@H]1C(=O)N[C@@H](CO)C(=O)O [YW-154] (H-[dNMeY]FLP[dS]QF[dA][X5]S-OH) ; log10 of EC50 = 1.53

// CC(C)C[C@@H](C(=O)N1CCC[C@H]1C(=O)N[C@H](CO)C(=O)N[C@@H](CCC(N)=O)C(=O)N[C@@H](Cc1ccccc1)C(=O)N[C@H](C)C(=O)N1Cc2ccccc2C[C@H]1C(=O)N(C)[C@@H](CCO)C(=O)O)N(C)C(=O)[C@H](Cc1ccccc1)NC(=O)[C@H](N)Cc1ccc(O)cc1 [YW-177] (H-[dY]F[NMeL]P[dS]QF[dA][Tic][NMehSer]-OH) : log10 of EC50 value = 1.40

// field: log10 of EC50; key: CC(C)C[C@H](NC(=O)[C@H](Cc1ccccc1)NC(=O)[C@H](N)Cc1ccc(O)cc1)C(=O)N1CCC[C@H]1C(=O)N[C@H](CO)C(=O)N[C@@H](CCC(N)=O)C(=O)N[C@@H](Cc1ccc(C(=O)c2ccccc2)cc1)C(=O)N[C@H](C)C(=O)N1Cc2ccccc2C[C@H]1C(=O)N[C@@H](CO)C(=O)O [YW-119] (H-[dY]FLP[dS]Q[Bpa][dA][Tic]S-OH) ; value = 1.00

====

Target: human Chemokine like receptor 1 (Homo sapiens)
Construct: host or cells: U2OS (Tango CMKLR1-bla U2OS)
Experiment: Activation of Tango CMKLR1-bla U2OS cells (beta-lactamase FRET reporter)
Type: cell-based
Settings: determination by the method of Effect Embodiment 1; read-out: EC50
Square brackets hold non-standard residues; d marks the D form. Peptide text beside a SMILES is read from it. * marks the point of attachment. Hydrocinnamoyl = O=C(CCc1ccccc1)*; NMeF = CN[C@@H](Cc1ccccc1)C(=O)O; Tic = O=C(O)[C@@H]1Cc2ccccc2CN1; NMeL = CN[C@@H](CC(C)C)C(=O)O
Value Kind: EC50 (nM)
Give the quantity in nM, number only.

* CC(C)C[C@H](NC(=O)[C@H](Cc1ccccc1)NC(=O)[C@@H](Cc1ccc(O)cc1)NC(=O)CCc1ccccc1)C(=O)N1CCC[C@H]1C(=O)N[C@H](CO)C(=O)N[C@@H](CCC(N)=O)C(=O)N[C@@H](Cc1ccccc1)C(=O)N[C@H](C)C(=O)N1Cc2ccccc2C[C@H]1C(=O)N[C@@H](CO)C(=O)O [YW-71] (Hydrocinnamoyl-[dY]FLP[dS]QF[dA][Tic]S-OH) | 31

Moving on to another compound below.
EC50 reading for CC(C)C[C@@H](C(=O)N1CCC[C@H]1C(=O)N[C@H](CO)C(=O)N[C@@H](CCC(N)=O)C(=O)N[C@@H](Cc1ccccc1)C(=O)N[C@H](C)C(=O)N1Cc2ccccc2C[C@H]1C(=O)N[C@@H](CO)C(=O)O)N(C)C(=O)[C@H](Cc1ccccc1)N(C)C(=O)[C@H](N)Cc1ccc(O)cc1 [YW-105] (H-[dY][NMeF][NMeL]P[dS]QF[dA][Tic]S-OH; N-terminus assumed) : 10.6

====

Target: human Chemokine like receptor 1 (Homo sapiens, UniProt Q99788)
Construct: host or cells: U2OS (Tango CMKLR1-bla U2OS)
Test: Activation of Tango CMKLR1-bla U2OS cells (beta-lactamase FRET reporter)
Assay type: cell-based
Conditions: determination by the method of Effect Embodiment 1; read-out: EC50
Square brackets hold non-standard residues; d marks the D form. Peptide text beside a SMILES is read from it. * marks the point of attachment. PEG8 = NCCOCCOCCOCCOCCOCCOCCOCCOCCC(=O)O; 2Nal = N[C@@H](Cc1ccc2ccccc2c1)C(=O)O; dNMeY = CN[C@H](Cc1ccc(O)cc1)C(=O)O; Tic = O=C(O)[C@@H]1Cc2ccccc2CN1; NMeL = CN[C@@H](CC(C)C)C(=O)O; Lauroyl = CCCCCCCCCCCC(=O)*; NMeS = CN[C@@H](CO)C(=O)O; X8 = O=C(c1c(O)cccc1O)*; Hexanoyl = CCCCCC(=O)*; βAla = NCCC(=O)O
Here, each record is paired with measured EC50 data.

* CCCCCCCCCCCC(=O)NCCOCCOCCOCCOCCOCCOCCOCCOCCC(=O)NCCC(=O)NCCC(=O)N(C)[C@H](Cc1ccc(O)cc1)C(=O)N[C@@H](Cc1ccccc1)C(=O)N(C)[C@@H](CC(C)C)C(=O)N1CCC[C@H]1C(=O)N[C@H](CO)C(=O)N[C@@H](CCC(N)=O)C(=O)N[C@@H](Cc1ccc2ccccc2c1)C(=O)N[C@H](C)C(=O)N1Cc2ccccc2C[C@H]1C(=O)N(C)[C@@H](CO)C(=O)O [YW-181] ({Lauroyl-PEG8-βAla-βAla}-[dNMeY]F[NMeL]P[dS]Q[2Nal][dA][Tic][NMeS]-OH) | 2.2 nM
* CCCCCC(=O)N[C@H](Cc1ccc(O)cc1)C(=O)N[C@@H](Cc1ccccc1)C(=O)N(C)[C@@H](CC(C)C)C(=O)N1CCC[C@H]1C(=O)N[C@H](CO)C(=O)N[C@@H](CCC(N)=O)C(=O)N[C@@H](Cc1ccccc1)C(=O)N[C@H](C)C(=O)N1Cc2ccccc2C[C@H]1C(=O)N[C@@H](CO)C(=O)O [YW-193] (Hexanoyl-[dY]F[NMeL]P[dS]QF[dA][Tic]S-OH) | 1.4 nM

Form field EC50, entry CC(C)C[C@H](NC(=O)[C@H](Cc1ccccc1)NC(=O)[C@@H](Cc1ccc(O)cc1)NC(=O)c1c(O)cccc1O)C(=O)N1CCC[C@H]1C(=O)N[C@H](CO)C(=O)N[C@@H](CCC(N)=O)C(=O)N[C@@H](Cc1ccccc1)C(=O)N[C@H](C)C(=O)N1Cc2ccccc2C[C@H]1C(=O)N[C@@H](CO)C(=O)O [YW-128] (X8-[dY]FLP[dS]QF[dA][Tic]S-OH) : 20 nM
